tested target: Bcl-2 protein (Recombinant Human Bcl-2 Protein) (Homo sapiens, UniProt P10415)
Construct: purchased Novus NBP2-34889
Sequence (P10415 whole entry): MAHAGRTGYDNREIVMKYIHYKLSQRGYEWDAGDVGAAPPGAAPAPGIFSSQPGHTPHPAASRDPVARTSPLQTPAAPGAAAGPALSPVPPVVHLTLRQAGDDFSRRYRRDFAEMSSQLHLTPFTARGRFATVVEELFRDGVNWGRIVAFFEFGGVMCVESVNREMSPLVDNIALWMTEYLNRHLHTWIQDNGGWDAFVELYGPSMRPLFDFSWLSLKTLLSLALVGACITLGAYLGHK
method: Binding evaluation of mixture library compounds to Bcl-2 using AS-MS (affinity selection mass spectrometry)
experimental context: AS-MS on the mixture of 1200 library compounds; ASMS Ratio(%)=(A−C)/B×100; replicate n = 1
measured attribute: ASMS ratio (%) n = 1

[1] CCOc1cccc(C#Cc2ccccc2C(=O)N2CCN(c3ccc(C(=O)N(C)CC45CC6CC(CC(C6)C4)C5)cc3)CC2)c1
[2] CCOc1cccc(-c2ccccc2CCC(=O)N2CCN(c3ccc(C(=O)N(C)CC45CC6CC(CC(C6)C4)C5)nn3)CC2)c1
Higher ASMS ratio (%) n = 1 between 1 and 2 ? Which one? Tell me its label. 2

[P] CCOc1cccc(-c2cc(C(=O)N3CCN(c4ccc(C(=O)N(C)CC56CC7CC(CC(C7)C5)C6)cc4)CC3)cc(C(C)(C)C)c2)c1
[Q] CCOc1cncc(-c2ccc(CN3CCN(c4ccc(C(=O)Nc5ccc(OC)cc5)nn4)CC3)c3ccccc23)c1
[R] CCOc1cccc(-c2ccc(C(=O)N3CCN(c4ccc(C(=O)N(C)CC56CC7CC(CC(C7)C5)C6)cc4)CC3)cc2F)c1
Write the entries in order, lowest recorded ASMS ratio (%) n = 1 first. Give the labels in the order requested. R, P, Q

----------
tested target: Bcl-2 protein (Recombinant Human Bcl-2 Protein) (Homo sapiens)
Construct: purchased Novus NBP2-34889
method: Binding evaluation of mixture library compounds to Bcl-2 using AS-MS (affinity selection mass spectrometry)
experimental context: AS-MS, mixture library, Bcl-2; replicate n = 1; ASMS Ratio(%)=(A−C)/B×100
measured attribute: ASMS ratio (%) n = 1

compound	ASMS ratio (%) n = 1
CCOc1cncc(-c2csc(C(=O)N3CCN(c4ccc(C(=O)NS(=O)(=O)CC56CC7CC(CC(C7)C5)C6)cc4)CC3)c2)c1 [B2A024-01]	−1.9
CCOc1cccc(C#Cc2ccccc2CN2CCN(c3ccc(C(=O)NS(=O)(=O)c4ccc(NCCSc5ccccc5)c([N+](=O)[O-])c4)nn3)CC2)c1 [B2Q095-01]	19.9
CCOc1cccc(-c2ccc(CN3CCN(c4ccc(C(=O)N(CC)CC)nn4)CC3)c3ccccc23)c1 [B4J091-01]	3.7
CCOc1cccc(-c2ccccc2CCC(=O)N2CCN(c3ccc(C(=O)NS(C)(=O)=O)nn3)CC2)c1 [B2I011-01]	0.0
CCOc1cncc(-c2ccccc2CCC(=O)N2CCN(c3ccc(C(=O)NS(=O)(=O)CC45CC6CC(CC(C6)C4)C5)nn3)CC2)c1 [B2A012-01]	1.5

[A] CCOc1cccc(-c2cnn(-c3cc(C(=O)N4CCN(c5ccc(C(=O)NS(C)(=O)=O)nn5)CC4)cc(C(F)(F)F)c3)c2)c1 [B2I021-01]
[B] CCOc1cncc(-c2ccc(CN3CCN(c4ccc(C(=O)NS(=O)(=O)CC56CC7CC(CC(C7)C5)C6)cc4)CC3)cc2C)c1 [B2A048-01]
Quick one: lower ASMS ratio (%) n = 1, A or B ? Which one? Tell me its label. A

[A] CCOc1cncc(-c2ccc(C(C)N3CCN(c4ccc(C(=O)NS(=O)(=O)CC56CC7CC(CC(C7)C5)C6)cc4)CC3)cc2)c1 (stereo not shown) [B2A098-01]
[B] CCOc1cccc(-c2ccc(C(=O)N3CCN(c4ccc(C(=O)NS(=O)(=O)c5ccc(NCCSc6ccccc6)c([N+](=O)[O-])c5)nn4)CC3)cc2F)c1 [B2Q005-01]
Higher ASMS ratio (%) n = 1 between A and B ? Which one? Tell me its label. A
(A: 18.2%, B: 12.5%)

[P] CCOc1cncc(-c2ccccc2CCC(=O)N2CCN(c3ccc(C(=O)NS(=O)(=O)c4ccc(NCCSc5ccccc5)c([N+](=O)[O-])c4)nn3)CC2)c1 [B2Q012-01]
[Q] CCOc1cncc(-c2ccccc2CCC(=O)N2CCN(c3ccc(C(=O)NS(=O)(=O)c4ccc(NCCSc5ccccc5)c([N+](=O)[O-])c4)cc3)CC2)c1 [B2Q034-01]
Higher ASMS ratio (%) n = 1 between P and Q ? Which one? Tell me its label. P
